Measured CL/F of individual entries
Assay: Clearance in BALB/c mouse at 5 mg/kg, po measured upto 24 hrs by LC-MS/MS analysis
Format: ADME, organism-based
Details: in vivo
Answer with the value and then the unit.

*Q* Requested field: CL/F. Item: C[C@H](NC(=O)c1c(Cc2cccc(C(F)(F)F)c2)sc2c1CCOC2)c1ccc(C(=O)O)cc1
*A* 49.9 mL/min/kg

*Q* Requested field: CL/F. Item: O=C(O)c1ccc(CNC(=O)c2c(Cc3ccc(F)cc3)sc3c2CCOC3)cc1
*A* 38.5 mL/min/kg

----------
Assay: Metabolic stability in human liver microsomes assessed as intrinsic clearance
Format: ADME, Microsome
Conditions: read-out: CLH
observation-type: microsomal CLint

The examples below pair each entry with its known result.
cpd-smiles: C[C@H](NC(=O)c1c(CCc2ccc(F)cc2)sc2c1CCC2)c1ccc(C(=O)O)cc1
observed-result: 221 µL/min/mg
//
cpd-smiles: C[C@H](NC(=O)c1c(CCc2ccc(F)cc2)sc2c1CCCC2)c1ccc(C(=O)O)cc1
observed-result: 97.6 µL/min/mg
//
cpd-smiles: C[C@H](NC(=O)c1c(Cc2cccc(C(F)(F)F)c2)sc2c1CCOC2)c1ccc(C(=O)O)cc1
observed-result: < 9.6 µL/min/mg
//
cpd-smiles: C[C@H](NC(=O)c1c(Cc2ccc(C(F)(F)F)cc2)sc2c1CCOC2)c1ccc(C(=O)O)cc1
observed-result: < 9.6 µL/min/mg

*Q* Requested field: microsomal CLint. Item: C[C@H](NC(=O)c1c(C(F)F)nn(C)c1Oc1cccc(C(F)(F)F)c1)c1ccc(C(=O)O)cc1
*A* < 9.6 µL/min/mg

*Q* Requested field: microsomal CLint. Item: C[C@H](NC(=O)c1c(CCc2ccc(F)cc2)sc2c1CCOC2)c1ccc(C(=O)O)cc1
*A* 28.5 µL/min/mg

*Q* Requested field: microsomal CLint. Item: O=C(O)c1ccc(CNC(=O)c2c(Cc3ccc(F)cc3)sc3c2CCOC3)cc1
*A* < 9.6 µL/min/mg

----------
Test: Metabolic stability in human liver microsomes assessed as parent compound remaining at 10 uM measured after 60 mins
Type: ADME, Microsome
Conditions: read-out: Stability
observation-type: remaining at 1 h, 10 µM (%)
Quick note: give the figure in %, leave out the unit.

cpd-smiles: C[C@H](NC(=O)c1c(CCc2ccc(F)cc2)sc2c1CCC2)c1ccc(C(=O)O)cc1
unit-of-measure: %
observed-result: 12.2
//
cpd-smiles: C[C@H](NC(=O)c1c(Cc2cccc(C(F)(F)F)c2)sc2c1CCOC2)c1ccc(C(=O)O)cc1
unit-of-measure: %
observed-result: 84.6
//
cpd-smiles: C[C@H](NC(=O)c1c(Cc2ccc(C(F)(F)F)cc2)sc2c1CCOC2)c1ccc(C(=O)O)cc1
unit-of-measure: %
observed-result: 90
//
cpd-smiles: C[C@H](NC(=O)c1c(CCc2ccc(F)cc2)sc2c1CCCC2)c1ccc(C(=O)O)cc1
unit-of-measure: %
observed-result: 5

*Q* Requested field: remaining at 1 h, 10 µM. Item: O=C(O)c1ccc(CNC(=O)c2c(Cc3ccc(F)cc3)sc3c2CCOC3)cc1
*A* 89.8

*Q* Requested field: remaining at 1 h, 10 µM. Item: C[C@H](NC(=O)c1c(CCc2ccc(F)cc2)sc2c1CCOC2)c1ccc(C(=O)O)cc1
*A* 40.7

*Q* Requested field: remaining at 1 h, 10 µM. Item: C[C@H](NC(=O)c1c(C(F)F)nn(C)c1Oc1cccc(C(F)(F)F)c1)c1ccc(C(=O)O)cc1
*A* 83.6

----------
Target: UniProt P32240
Sequence (P32240 whole entry): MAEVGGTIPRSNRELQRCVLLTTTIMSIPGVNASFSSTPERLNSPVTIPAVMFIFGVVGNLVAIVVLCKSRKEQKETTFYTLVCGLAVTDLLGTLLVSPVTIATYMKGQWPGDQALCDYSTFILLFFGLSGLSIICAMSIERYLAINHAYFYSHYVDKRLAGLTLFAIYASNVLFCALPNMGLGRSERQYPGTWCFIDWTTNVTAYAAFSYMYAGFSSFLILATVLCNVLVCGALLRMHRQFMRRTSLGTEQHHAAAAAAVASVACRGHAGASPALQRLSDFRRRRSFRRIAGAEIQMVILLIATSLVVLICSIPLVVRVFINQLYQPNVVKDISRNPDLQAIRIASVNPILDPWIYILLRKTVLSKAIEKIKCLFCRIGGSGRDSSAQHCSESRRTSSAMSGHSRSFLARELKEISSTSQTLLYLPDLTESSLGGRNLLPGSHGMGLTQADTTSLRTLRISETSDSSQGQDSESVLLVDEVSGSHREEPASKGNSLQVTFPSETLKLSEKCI
Assay: Antagonist activity at mouse EP4 receptor transfected in CHO/Galpha16 cells preincubated for 15 mins followed by PGE2 addition by calcium flux assay
pIC50: −log10 of the molar value.
Threshold rule: pIC50 greater than or equal to 7 is MET; below that, NOT MET.

cpd-smiles: C[C@H](NC(=O)c1c(CCc2ccc(F)cc2)sc2c1CCOC2)c1ccc(C(=O)O)cc1
group-label: MET
--
cpd-smiles: C[C@H](NC(=O)c1c(Cc2ccc(C(F)(F)F)cc2)sc2c1CCOC2)c1ccc(C(=O)O)cc1
group-label: NOT MET
--
cpd-smiles: C[C@H](NC(=O)c1c(Cc2cccc(C(F)(F)F)c2)sc2c1CCOC2)c1ccc(C(=O)O)cc1
group-label: MET
--
cpd-smiles: O=C(O)c1ccc(CNC(=O)c2c(Cc3ccc(F)cc3)sc3c2CCOC3)cc1
group-label: MET

*Q* Does pIC50 meet or surpass 7 for C[C@H](NC(=O)c1c(CCc2ccc(F)cc2)sc2c1CCCC2)c1ccc(C(=O)O)cc1 ?
*A* MET

*Q* Does pIC50 meet or surpass 7 for C[C@H](NC(=O)c1c(CCc2ccc(F)cc2)sc2c1CCC2)c1ccc(C(=O)O)cc1 ?
*A* MET

----------
Test: Cmax in BALB/c mouse at 5 mg/kg, po measured upto 24 hrs by LC-MS/MS analysis
Assay type: ADME, organism-based
Design: dose 5 mg/kg, time < 24 hrs, route po
Conditions: in vivo
observation-type: Cmax (ng/mL)
Quick note: give the figure in ng/mL, leave out the unit.

cpd-smiles: C[C@H](NC(=O)c1c(Cc2cccc(C(F)(F)F)c2)sc2c1CCOC2)c1ccc(C(=O)O)cc1
observed-result: 664

Read the next record carefully.
*Q* Requested field: Cmax. Item: O=C(O)c1ccc(CNC(=O)c2c(Cc3ccc(F)cc3)sc3c2CCOC3)cc1
*A* 982

----------
Biological target: CYP2E1 (Homo sapiens, UniProt P05181)
Sequence (P05181 whole entry): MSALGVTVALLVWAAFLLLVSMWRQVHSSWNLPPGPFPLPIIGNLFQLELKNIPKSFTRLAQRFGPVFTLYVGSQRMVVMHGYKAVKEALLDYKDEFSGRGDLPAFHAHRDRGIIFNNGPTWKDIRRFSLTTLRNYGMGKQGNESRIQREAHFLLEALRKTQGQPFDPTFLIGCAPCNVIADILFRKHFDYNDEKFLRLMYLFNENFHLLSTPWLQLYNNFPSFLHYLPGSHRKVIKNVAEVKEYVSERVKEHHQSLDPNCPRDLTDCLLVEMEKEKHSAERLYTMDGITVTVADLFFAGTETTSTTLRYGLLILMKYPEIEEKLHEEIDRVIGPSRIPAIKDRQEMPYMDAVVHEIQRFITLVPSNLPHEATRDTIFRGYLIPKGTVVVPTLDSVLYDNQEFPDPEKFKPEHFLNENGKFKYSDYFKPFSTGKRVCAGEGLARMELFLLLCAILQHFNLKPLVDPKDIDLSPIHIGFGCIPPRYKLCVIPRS
Experiment: Inhibition of CYP2E1 (unknown origin) at 20 uM
Format: ADME
Measured inhibition at 20 µM of individual entries
Quick note: give the figure in %, leave out the unit.

cpd-smiles: C[C@H](NC(=O)c1c(Cc2cccc(C(F)(F)F)c2)sc2c1CCOC2)c1ccc(C(=O)O)cc1
unit-of-measure: %
inhibition at 20 µM: 23

cpd-smiles: C[C@H](NC(=O)c1c(C(F)F)nn(C)c1Oc1cccc(C(F)(F)F)c1)c1ccc(C(=O)O)cc1
unit-of-measure: %
inhibition at 20 µM: 21

cpd-smiles: C[C@H](NC(=O)c1c(CCc2ccc(F)cc2)sc2c1CCOC2)c1ccc(C(=O)O)cc1
unit-of-measure: %
inhibition at 20 µM: 39

*Q* Requested field: inhibition at 20 µM. Item: C[C@H](NC(=O)c1c(Cc2ccc(C(F)(F)F)cc2)sc2c1CCOC2)c1ccc(C(=O)O)cc1
*A* 26

*Q* Requested field: inhibition at 20 µM. Item: O=C(O)c1ccc(CNC(=O)c2c(Cc3ccc(F)cc3)sc3c2CCOC3)cc1
*A* 31

----------
Tested on: 3LL cell line
Assay: Cytotoxicity against mouse 3LL cells assessed as reduction in cell viability incubated for 72 hrs by CCK-8 assay
Measured IC50 of individual entries

The examples below pair each entry with its known result.
cpd-smiles: C[C@H](NC(=O)c1c(Cc2ccc(C(F)(F)F)cc2)sc2c1CCOC2)c1ccc(C(=O)O)cc1
IC50: > 100 µM

cpd-smiles: C[C@H](NC(=O)c1c(Cc2cccc(C(F)(F)F)c2)sc2c1CCOC2)c1ccc(C(=O)O)cc1
IC50: > 100 µM

Read the next record carefully.
*Q* Requested field: IC50. Item: C[C@H](NC(=O)c1c(CCc2ccc(F)cc2)sc2c1CCOC2)c1ccc(C(=O)O)cc1
*A* > 100 µM

----------
Assay: Kinetic solubility of compound in simulated intestinal fluid at pH 6.8 measured after 24 hrs by HPLC analysis
Assay type: physicochemical
Details: read-out: Kinetic_solubility
observation-type: solubility kinetic at 24 h (µM)
Quick note: give the figure in µM, leave out the unit.

*Q* Requested field: solubility kinetic at 24 h. Item: C[C@H](NC(=O)c1c(Cc2cccc(C(F)(F)F)c2)sc2c1CCOC2)c1ccc(C(=O)O)cc1
*A* 182

----------
Measured AUC(0-t) at 24 h of individual entries
Assay: AUC (0 to 24 hrs) in BALB/c mouse at 5 mg/kg, po measured upto 24 hrs by LC-MS/MS analysis
Format: ADME, organism-based
Design: dose 5 mg/kg, time < 24 hrs, route po
Settings: in vivo
Quick note: give the figure in µg·h/mL, leave out the unit.

cpd-smiles: C[C@H](NC(=O)c1c(Cc2cccc(C(F)(F)F)c2)sc2c1CCOC2)c1ccc(C(=O)O)cc1
unit-of-measure: µg·h/mL
AUC(0-t) at 24 h: 1.68

Read the next record carefully.
*Q* Requested field: AUC(0-t) at 24 h. Item: O=C(O)c1ccc(CNC(=O)c2c(Cc3ccc(F)cc3)sc3c2CCOC3)cc1
*A* 2.1

----------
Assay: Clearance in BALB/c mouse at 1 mg/kg, iv measured upto 24 hrs by LC-MS/MS analysis
Assay type: ADME, organism-based
Details: in vivo
Measured clearance of individual entries
Quick note: give the figure in mL/min/kg, leave out the unit.

cpd-smiles: C[C@H](NC(=O)c1c(Cc2cccc(C(F)(F)F)c2)sc2c1CCOC2)c1ccc(C(=O)O)cc1
clearance [mL/min/kg]: 24.6

Read the next record carefully.
*Q* Requested field: clearance. Item: O=C(O)c1ccc(CNC(=O)c2c(Cc3ccc(F)cc3)sc3c2CCOC3)cc1
*A* 22.7
